Target: rat adrenergic α1B receptor (Rattus norvegicus, UniProt P15823)
Construct: rat adrenergic α1B receptor obtained from Wistar Rat liver; from tissue; host or cells: Wistar rat liver
Sequence (P15823 1-515): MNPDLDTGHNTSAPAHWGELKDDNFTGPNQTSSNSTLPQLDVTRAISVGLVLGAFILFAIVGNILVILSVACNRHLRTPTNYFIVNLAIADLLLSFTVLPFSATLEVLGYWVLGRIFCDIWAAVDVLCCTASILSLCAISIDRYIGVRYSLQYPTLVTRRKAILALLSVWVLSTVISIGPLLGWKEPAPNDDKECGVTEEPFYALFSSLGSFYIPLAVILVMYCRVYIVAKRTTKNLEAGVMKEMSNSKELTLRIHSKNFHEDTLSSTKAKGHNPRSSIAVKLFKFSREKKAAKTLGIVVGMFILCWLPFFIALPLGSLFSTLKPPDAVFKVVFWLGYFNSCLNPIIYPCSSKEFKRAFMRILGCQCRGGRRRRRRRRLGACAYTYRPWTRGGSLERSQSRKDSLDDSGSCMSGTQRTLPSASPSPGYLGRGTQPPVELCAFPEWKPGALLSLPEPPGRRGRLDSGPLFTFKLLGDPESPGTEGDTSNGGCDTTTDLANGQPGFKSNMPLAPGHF
Assay: Radioligand binding, adrenergic α1B ([3H]Prazosin)
Conditions: 0.1 μM compound; read-out: Percentage inhibition of ligand binding, Adrenergic α1B
Entries and their inhibition at 0.1 µM
Returns: string containing the numeric result and its unit.

Examples with their reported inhibition at 0.1 µM follow.
molecule	inhibition at 0.1 µM
CCCCCCC(=O)OC(Cn1c2c(c3cc(C)ccc31)CN(C)CC2)c1ccncc1 (centres unmarked)	16%
Cc1ccc2c(c1)c1c(n2CC(O)c2ccncc2)CCN(CCCO)C1 (centres unmarked)	8%

Next item in the queue.
Could you tell me which inhibition at 0.1 µM is on file for Cc1ccc2c(c1)c1c(n2CC(O)C2CCCCC2)CCN(C)C1 (centres unmarked) ? 16%
